Assay: Microsomal metabolic stability assay
Format: in vitro ADME
Details: pH 7.4; dog liver microsomes, 0.5 mg/mL protein, 1 μM compound; read-out: Dog LM T½
half-life at 1 μM values, listed per item

Consider the worked cases shown below.
MOLECULE	half-life at 1 μM
[2H]C([2H])([2H])NC(=O)c1cnc(Nc2ccn(C)n2)cc1Nc1ccc2cnn(CC)c2c1OC [Example 43]	0.751 h
[2H]C([2H])([2H])NC(=O)c1cnc(NC(=O)C2CC2)cc1Nc1cnn2ccn(CC(F)(F)F)c(=O)c12 [Example 45]	2.64 h
[2H]C([2H])([2H])NC(=O)c1cnc2nc1Nc1cc(cc(-c3ncn(C)n3)c1OC)COCc1cc(cc(F)c1F)N2 [Example 78]	2.72 h

I'd like to know its half-life at 1 μM. The molecule in question is [2H]C([2H])([2H])NC(=O)c1nnc2cc1Nc1cc(cc(-c3ncn(C)n3)c1OC)COCc1cc(F)cc(n1)N2 [Example 71]
4.1 h

Next entry: [2H]C([2H])([2H])NC(=O)c1cnc(NC(=O)C2CC2)cc1Nc1cn(C)c2ncn([C@H](C)C(F)(F)F)c(=O)c12 (single isomer, unassigned) [Example 234A]
2.11 h

Next molecule: [2H]C([2H])([2H])NC(=O)c1cnc2cc1Nc1cc(cc(-c3ncc(OC)cn3)c1OC)COCc1nc(ccc1F)N2 [Example 95]
> 2 h

Try this molecule too: CNC(=O)c1cnc(NC(=O)C2CC2)cc1Nc1cn(C)c2c(F)cn(C)c(=O)c12 [Example 14]
3.59 h

Further, for CNC(=O)c1cnc(NC(=O)C2CC2)cc1Nc1nn(C)c2ccn(CC(F)(F)F)c(=O)c12 [Example 52] ?
2.08 h
